Assay: Acute toxicity test of ORG in mice
Assay type: in vivo
Details: mouse, in vivo, 1750 mg/kg; acute toxicity test, Kunming mice, oral; read-out: median toxic dose (TD50)
Description: Kunming mice (Certificate Number: A4CXK(Chuan)2003-16) from the Institute of Experimental Animals, People's Hospital of Sichuan Province, were used. They were 3-4 weeks old and at the beginning of the experiment and weighed 25-30 g. ORG was prepared as described in Example 1. ORG (1750 mg) was dissolved in 10 ml NS to give a concentration of 175 mg/ml. Mice were divided into two groups, the ORG group for evaluation was given ORG and a group was treated with NS for vehicle control. […]
measured-metric: TD50

Recorded TD50 of Cc1cc(O)cc(OC2OC(CO)C(O)C(O)C2O)c1 [ORG, orcinol-1-O-β-D-glucopyranoside] , please. > 1750 mg/kg
